TEST PROTOCOL: RPL19A-GFP modulators, yeast TOR pathway, confirmation, cell-based, S. cerevisiae, flow cytometry, cherry picks, mother/daughter gates (AID 2270)
MEASUREMENT SETUP: S. cerevisiae RPL19A-GFP strain, 3 h, measured here: daughter cell gate, at 10 µM, stronger effect = lower value, 100 = same GFP as DMSO wells
MEASUREMENT KIND: GFP response vs DMSO (%)

{"COMPOUND": "CCOC(=O)Cc1csc(NC(=O)CSc2nnc(-c3ccc(C)cc3)o2)n1", "MEASUREMENT KIND": "GFP response vs DMSO", "MEASUREMENT UNITS": "%", "MEASURED RESULT": 98.8}
{"COMPOUND": "CC(C)(C)C1=CC=C(C(C)(C)C)C(=O)C1=O", "MEASUREMENT KIND": "GFP response vs DMSO", "MEASUREMENT UNITS": "%", "MEASURED RESULT": 102}
{"COMPOUND": "COc1ccc(NC(=O)/C(Cl)=C(/Cl)S(=O)Cc2ccccc2)cn1 (stereo unspecified)", "MEASUREMENT KIND": "GFP response vs DMSO", "MEASUREMENT UNITS": "%", "MEASURED RESULT": 114}
{"COMPOUND": "CCOc1cc(/C=C2\\N=C(C)OC2=O)cc(Cl)c1OCC(=O)OC", "MEASUREMENT KIND": "GFP response vs DMSO", "MEASUREMENT UNITS": "%", "MEASURED RESULT": 106}
{"COMPOUND": "O=C(NCc1ccncc1)C12CC3CC(CC(Cl)(C3)C1)C2", "MEASUREMENT KIND": "GFP response vs DMSO", "MEASUREMENT UNITS": "%", "MEASURED RESULT": 98.1}
{"COMPOUND": "O=C(Nc1nc2ccc(F)cc2s1)c1ccccn1", "MEASUREMENT KIND": "GFP response vs DMSO", "MEASUREMENT UNITS": "%", "MEASURED RESULT": 102}
{"COMPOUND": "O=C1CC(Sc2ncccn2)C(=O)N1c1ccccc1C(F)(F)F (stereo unspecified)", "MEASUREMENT KIND": "GFP response vs DMSO", "MEASUREMENT UNITS": "%", "MEASURED RESULT": 100}
{"COMPOUND": "COc1ccc(NC2=C(Cl)C(=O)N(CCc3ccccc3)C2=O)c(OC)c1", "MEASUREMENT KIND": "GFP response vs DMSO", "MEASUREMENT UNITS": "%", "MEASURED RESULT": 96.6}
{"COMPOUND": "COc1ccc(NC(=O)CCN2CCN(S(=O)(=O)c3cc(Cl)ccc3OC)CC2)cc1", "MEASUREMENT KIND": "GFP response vs DMSO", "MEASUREMENT UNITS": "%", "MEASURED RESULT": 97.8}
{"COMPOUND": "O=C(Cc1ccc(-c2ccccc2)cc1)OCC(=O)N1CCCC1=O", "MEASUREMENT KIND": "GFP response vs DMSO", "MEASUREMENT UNITS": "%", "MEASURED RESULT": 93.9}
{"COMPOUND": "Cn1c(=O)c2ccccc2n(Cc2cccc(F)c2)c1=O", "MEASUREMENT KIND": "GFP response vs DMSO", "MEASUREMENT UNITS": "%", "MEASURED RESULT": 97.8}

----------
Recorded GFP response, % of DMSO by entry
TEST PROTOCOL: modulators of CIT2-GFP expression in yeast, confirmation, S. cerevisiae, GFP fusion, cherry picks, mother/daughter gates (AID 2274)
MEASUREMENT SETUP: S. cerevisiae CIT2-GFP strain, flow cytometry, 3 h; measured here: daughter cell gate; at 10 µM; stronger effect = higher value
MEASUREMENT KIND: GFP response, % of DMSO (%)

{"COMPOUND": "CCn1c(=O)c(C(=O)NCCc2ccccc2)c(O)c2ccccc21", "MEASURED RESULT": 99.3}
{"COMPOUND": "COc1ccc2c(/C=C/c3cc[n+](C)cc3)c[nH]c2c1", "MEASURED RESULT": 169}
{"COMPOUND": "COC(=O)c1ccc(N2C(=O)CC(SCCN)C2=O)cc1 (configuration not stated)", "MEASURED RESULT": 103}
{"COMPOUND": "CCN(Cc1ccccc1)S(=O)(=O)c1ccc(C(=O)Nc2nnc(C3CC3)o2)cc1", "MEASURED RESULT": 100}
{"COMPOUND": "Nc1cc(N)nc(SCC(=O)N2CCc3ccccc32)n1", "MEASURED RESULT": 101}
{"COMPOUND": "Cc1ccn2c(NC(=O)c3ccco3)c(-c3ccccc3)nc2c1", "MEASURED RESULT": 103}
{"COMPOUND": "COCCNc1c(-c2ccc(O)cc2)nc2ccc(Cl)cn12", "MEASURED RESULT": 99.1}
{"COMPOUND": "O=[N+]([O-])c1ccc(S(=O)(=O)c2ccccc2)nc1", "MEASURED RESULT": 131}
{"COMPOUND": "Cc1ccn2c(NC3CCCCC3)c(C(C)C)nc2c1", "MEASURED RESULT": 103}
{"COMPOUND": "O=[N+]([O-])c1c(Nc2ccccn2)cc(Cl)c2nonc12", "MEASURED RESULT": 103}
{"COMPOUND": "Cc1nonc1C(=O)N/N=C/c1ccc([N+](=O)[O-])o1", "MEASURED RESULT": 105}
{"COMPOUND": "O=C(Nc1cccc(O)c1)c1ccccc1", "MEASURED RESULT": 101}

----------
TEST PROTOCOL: modulators of CIT2-GFP expression in yeast, confirmation, S. cerevisiae, GFP fusion, cherry picks, mother/daughter gates (AID 2274)
MEASUREMENT SETUP: S. cerevisiae CIT2-GFP strain, flow cytometry, 3 h; measured here: mother cell gate; at 10 µM; stronger effect = higher value

{"COMPOUND": "CCOc1ccccc1-c1noc(CCC(=O)Nc2cccnc2)n1", "MEASUREMENT UNITS": "%", "GFP response, % of DMSO": 112}
{"COMPOUND": "Cc1ccc(/C=C/C(=O)c2ccc(C)cc2)cc1", "MEASUREMENT UNITS": "%", "GFP response, % of DMSO": 103}
{"COMPOUND": "Cc1cccc(CS(=O)(=O)c2ncc(Cl)c(C(=O)NCc3ccc4c(c3)OCO4)n2)c1", "MEASUREMENT UNITS": "%", "GFP response, % of DMSO": 108}
{"COMPOUND": "CCN(CC)c1ccc2cc(-c3nc4ccccc4[nH]3)c(=O)oc2c1", "MEASUREMENT UNITS": "%", "GFP response, % of DMSO": 136}
{"COMPOUND": "CCN(CC)CCNC(=O)Cn1c(-c2ccccn2)nc2ccccc21", "MEASUREMENT UNITS": "%", "GFP response, % of DMSO": 97.7}
{"COMPOUND": "N#Cc1nccnc1S(=O)(=O)c1cccs1", "MEASUREMENT UNITS": "%", "GFP response, % of DMSO": 98.2}
{"COMPOUND": "COc1cc(-c2nc3ccccn3c2NCC2CCCO2)ccc1O (stereo not drawn)", "MEASUREMENT UNITS": "%", "GFP response, % of DMSO": 104}
{"COMPOUND": "Cc1cc(N2CCOCC2)n2nc(C)c(-c3ccccc3)c2n1", "MEASUREMENT UNITS": "%", "GFP response, % of DMSO": 98.1}
{"COMPOUND": "COc1ccc(/C=N\\NC(=O)c2cc(OCC(F)(F)F)ccc2OCC(F)(F)F)cc1", "MEASUREMENT UNITS": "%", "GFP response, % of DMSO": 95}
{"COMPOUND": "O=C(c1c(F)cccc1F)N1CCN(c2ccccc2F)CC1", "MEASUREMENT UNITS": "%", "GFP response, % of DMSO": 106}
{"COMPOUND": "O=C(COC(=O)c1ccc(NS(=O)(=O)c2cccs2)cc1O)Nc1nc2ccccc2s1", "MEASUREMENT UNITS": "%", "GFP response, % of DMSO": 104}
{"COMPOUND": "COCc1nnc(NC(=O)c2ccc(S(=O)(=O)N(C)C3CCCCC3)cc2)o1", "MEASUREMENT UNITS": "%", "GFP response, % of DMSO": 102}
{"COMPOUND": "Cc1cc(NCCCN2CCOCC2)n2nc(C)c(-c3ccccc3)c2n1", "MEASUREMENT UNITS": "%", "GFP response, % of DMSO": 100}
{"COMPOUND": "COc1ccc(/C=N/NC(=O)C2(C)NC(C)(C)Cc3ccccc32)cc1 (stereo not drawn)", "MEASUREMENT UNITS": "%", "GFP response, % of DMSO": 98.5}
{"COMPOUND": "N#C/C(=C\\c1ccccn1)c1nc2ccccc2s1", "MEASUREMENT UNITS": "%", "GFP response, % of DMSO": 496}
{"COMPOUND": "COc1ccc(-c2[nH]ncc2N=Nc2ccccc2)cc1", "MEASUREMENT UNITS": "%", "GFP response, % of DMSO": 93.7}
{"COMPOUND": "COc1ccc(C2c3c(oc4ccccc4c3=O)C(=O)N2CCN2CCOCC2)cc1OC (stereo not drawn)", "MEASUREMENT UNITS": "%", "GFP response, % of DMSO": 113}
{"COMPOUND": "Cc1ccc(N2C(=O)c3ccccc3NC2c2ccccc2O)cc1 (stereo not drawn)", "MEASUREMENT UNITS": "%", "GFP response, % of DMSO": 103}
{"COMPOUND": "O=[N+]([O-])c1cnc(Sc2ccncn2)s1", "MEASUREMENT UNITS": "%", "GFP response, % of DMSO": 102}
{"COMPOUND": "Cc1cc(Br)c2c(c1)/C(=C/C(=O)c1cccs1)C(=O)N2", "MEASUREMENT UNITS": "%", "GFP response, % of DMSO": 95.7}
{"COMPOUND": "CCNC(=O)/C(C#N)=C/c1c(N(Cc2ccccc2)Cc2ccccc2)nc2ccccn2c1=O", "MEASUREMENT UNITS": "%", "GFP response, % of DMSO": 104}
{"COMPOUND": "CC(Oc1ccc(Cl)cc1Cl)C(=O)NC1=NN(c2ccccc2)C(=O)C1 (stereo not drawn)", "MEASUREMENT UNITS": "%", "GFP response, % of DMSO": 97.3}
{"COMPOUND": "C=CCn1c(=O)c(C(=O)NCCc2ccccc2)c(O)c2ccccc21", "MEASUREMENT UNITS": "%", "GFP response, % of DMSO": 101}

Recorded values, source PubChem BioAssay.
